- ASSAYED SYSTEM: T1, human TIGIT protein (human, UniProt Q495A1 22-141, limits assumed)
- T1 construct: Recombinant protein (Genentech) used in ELISA screening and as SPR analyte; also called TIGIT antigen
- T1 sequence: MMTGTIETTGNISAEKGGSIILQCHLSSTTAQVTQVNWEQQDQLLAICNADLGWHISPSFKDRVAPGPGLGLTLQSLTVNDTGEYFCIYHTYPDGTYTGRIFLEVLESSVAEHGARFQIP
- TEST PROTOCOL: SPR, monovalent affinity
pKd: −log10 of the molar value.

BINDER: h10A5.L1H1 (antibody, V domains shown, Humanized; FR/HVR pieces in order; also called h1.10A5.L1H1) VH: EVTLKESGPALVKPTQTLTLTCTFSGFSLTTYGMGVSWIRQPPGKALEWLASIWWNGNTYYNPSLRSRLTVTKDTSKNQAVLTMTNMDPVDTATYYCAHTGGAVITWFAYWGQGTLVTVSS VL: EIVMTQSPATLSVSPGERATLSCKASQSVGKNIAWYQQKPGQSPRLLIYYASNRYTGVPARFSGSGSGTEFTLTISSLQSEDFAVYYCQHIYNSPYPFGQGTKVEIK
pKd: 9.28

BINDER: 4.1A4 (antibody, V domains shown, OMT rat-derived human antibody; also called 4.1A4.Q1.C96) VH: QVQLVQSGSELKKPGASVKVSCKASGYTLTNYPMNWVRQAPGRGLEWMGWINTNTGSPAYAQDFTERFVFSLDTSVTTAYLQISSLKAEDTAVYYCARTAITSVYHFDYWGQGTLVTVSS VL: DIQLTQSPSFLSASVGDRVTITCRASQGISSYLAWYQQKPGKAPRVLIYGATTLQSGVPSRFSGSESGTEFTLTISSLQPEDLATYYCQKLNSHPCSFGQGTKVEIK
pKd: 8.31

BINDER: 4.1A4.Q1E.C96 (antibody, V domains shown, built from its name as 4.1A4 with Q1E in VH and C96 kept in VL) VH: EVQLVQSGSELKKPGASVKVSCKASGYTLTNYPMNWVRQAPGRGLEWMGWINTNTGSPAYAQDFTERFVFSLDTSVTTAYLQISSLKAEDTAVYYCARTAITSVYHFDYWGQGTLVTVSS VL: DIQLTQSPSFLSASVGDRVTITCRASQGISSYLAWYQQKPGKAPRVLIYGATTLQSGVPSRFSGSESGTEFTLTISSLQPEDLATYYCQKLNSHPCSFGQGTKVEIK
pKd: 8.44
